# Test System: T1, UNK ZnF1-6 (called full-length) (human, UniProt Q9C0B0 30-357)
# T1 sequence: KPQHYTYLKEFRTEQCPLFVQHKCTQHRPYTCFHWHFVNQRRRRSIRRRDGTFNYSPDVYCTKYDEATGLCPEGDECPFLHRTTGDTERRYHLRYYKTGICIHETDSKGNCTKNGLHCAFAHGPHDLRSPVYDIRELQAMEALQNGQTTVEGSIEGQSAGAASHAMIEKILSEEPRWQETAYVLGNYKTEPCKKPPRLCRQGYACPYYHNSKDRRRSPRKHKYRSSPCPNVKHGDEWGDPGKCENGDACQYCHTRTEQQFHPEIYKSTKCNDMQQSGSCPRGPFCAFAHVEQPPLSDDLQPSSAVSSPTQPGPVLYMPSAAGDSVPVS
# Assay Protocol: nsRBNS (natural sequence RNA bind-n-seq); RBNS binding buffer (assumed for nsRBNS): 25 mM Tris pH 7.5, 150 mM KCl, 3 mM MgCl2, 0.01% Triton X-100, 500 ug/ml BSA, 20 U/ml SUPERase-In, 4 C; UNK is unkempt and MSI1 is Musashi-1; names of the RNAs are library labels; protein concentration not given here; high values mean tight binding
Over roughly 5,800 sequences, “enrichment r” has its median near 0.68; the highest 2% begin near 11. Many of the other results were omitted from the sample, so the highest values are more common in it than they were.
Reported Property: binding signal (enrichment R)

INSERT INTO measurements (binder, unit_of_measure, reported_measurement) VALUES
  ('chr3:64018827:64018930:-|CDS|ENSG00000163636|unk|FALSE|unique (ssRNA) RNA: GGGAGUUCUACAGUCCGACGAUCUGAACUCAUGGAUUAUAAAACAUUUGUGACUUAUACUGUCUAUGUCAGUAUGAUUGCCUUAGAAAGACCAGAUCUCAGGGAAAAGGUAAUGACCAAACUUUAAUACUCAAAUUUAAAGACCAACAGAGGAUUGAGCAUCA', 'enrichment R', 0.48),
  ('chr5:24509697:24509799:-|CDS|ENSG00000040731|unk|FALSE|unique (ssRNA) RNA: GGGAGUUCUACAGUCCGACGAUCACUCGACUAUGAGAGCCGAAGACUUUAUACUCUGAAAGUCGAAGCAGAAAACACCCAUGUAGAUCCCCGUUUUUAUUACCUAGGACCAUUUAAAGAUACUACCAUAGUGAAAAUCUCUAUCAACAGAGGAUUGAGCAUCA', 'enrichment R', 1.94);
